- System: ChaGo-K-1
- Test protocol: relative viability (nuclei count vs DMSO), 5 days (fraction); higher = more cells survive
- Experimental conditions: first compound 0.1265 µM

{"Compound": "O=C(O)c1ccc(-c2c[nH]c3ncc(-c4ccccc4)cc23)cc1C1CCCC1 + Cc1nc(Nc2ncc(C(=O)Nc3c(C)cccc3Cl)s2)cc(N2CCN(CCO)CC2)n1 [Dasatinib] (partner 0.075 µM)", "relative viability": 0.632}
{"Compound": "O=C(O)c1ccc(-c2c[nH]c3ncc(-c4ccccc4)cc23)cc1C1CCCC1 + N=C(N)NC(=N)NCCc1ccccc1 [Phenformin] (partner 250 µM)", "relative viability": 0.541}
{"Compound": "O=C(O)c1ccc(-c2c[nH]c3ncc(-c4ccccc4)cc23)cc1C1CCCC1 + CCNC(=O)c1noc(-c2cc(C(C)C)c(O)cc2O)c1-c1ccc(CN2CCOCC2)cc1 [Luminespib] (partner 0.01 µM)", "relative viability": 0.651}
{"Compound": "O=C(O)c1ccc(-c2c[nH]c3ncc(-c4ccccc4)cc23)cc1C1CCCC1 + CC(=O)c1c(C)c2cnc(Nc3ccc(N4CCNCC4)cn3)nc2n(C2CCCC2)c1=O [Palbociclib] (partner 0.5 µM)", "relative viability": 0.966}

* * *

Known relative viability of a selection of compounds
- Tested on: NCI-H2126
- Test protocol: relative viability (nuclei count vs DMSO), 5 days (fraction); higher = more cells survive
- Experimental conditions: first compound 2.53 µM
Value type: relative viability

{"Compound": "Oc1nc(-c2ccc(C(F)(F)F)cc2)nc2c1CSCC2 [XAV939] + Nc1nc2[nH]cc(CCc3ccc(C(=O)N[C@@H](CCC(=O)O)C(=O)O)cc3)c2c(=O)[nH]1 [Pemetrexed] (partner 0.2 µM)", "Study system": "NCI-H2126", "Value type": "relative viability", "Experimental result": 0.598}
{"Compound": "C=C1C(=O)O[C@@H](CCCCCCCC)[C@@H]1C(=O)O [C-75] + CS(=O)(=O)N1CCN(Cc2cc3nc(-c4cccc5[nH]ncc45)nc(N4CCOCC4)c3s2)CC1 [Pictilisib] (partner 1 µM)", "Study system": "NCI-H2126", "Value type": "relative viability", "Experimental result": 0.506}
{"Compound": "Oc1nc(-c2ccc(C(F)(F)F)cc2)nc2c1CSCC2 [XAV939] + Cc1nc(NC(=O)N2CCC[C@H]2C(N)=O)sc1-c1ccnc(C(C)(C)C(F)(F)F)c1 [Alpelisib] (partner 2 µM)", "Study system": "NCI-H2126", "Value type": "relative viability", "Experimental result": 0.563}
{"Compound": "Oc1nc(-c2ccc(C(F)(F)F)cc2)nc2c1CSCC2 [XAV939] + N=C(N)NC(=N)NCCc1ccccc1 [Phenformin] (partner 250 µM)", "Study system": "NCI-H2126", "Value type": "relative viability", "Experimental result": 0.516}
{"Compound": "Oc1nc(-c2ccc(C(F)(F)F)cc2)nc2c1CSCC2 [XAV939] + O=C(CCCCCCC(=O)Nc1ccccc1)NO [Vorinostat] (partner 1 µM)", "Study system": "NCI-H2126", "Value type": "relative viability", "Experimental result": 0.564}

* * *

- Tested on: SK-LU-1
- Test protocol: relative viability (nuclei count vs DMSO), 5 days (fraction); higher = more cells survive
- Experimental conditions: first compound 0.1581 µM
Listing: relative viability of selected compounds
Value type: relative viability

{"Compound": "CC1(C)CCC(c2ccc(Cl)cc2)=C(CN2CCN(c3ccc(C(=O)NS(=O)(=O)c4ccc(N[C@H](CCN5CCOCC5)CSc5ccccc5)c(S(=O)(=O)C(F)(F)F)c4)cc3)CC2)C1 [Navitoclax] + O=C(CCCCCCC(=O)Nc1ccccc1)NO [Vorinostat] (partner 1 µM)", "Experimental result": 0.627}
{"Compound": "CC1(C)CCC(c2ccc(Cl)cc2)=C(CN2CCN(c3ccc(C(=O)NS(=O)(=O)c4ccc(N[C@H](CCN5CCOCC5)CSc5ccccc5)c(S(=O)(=O)C(F)(F)F)c4)cc3)CC2)C1 [Navitoclax] + C[C@]1(O)C[C@@H](c2nc(-c3ccc4ccc(-c5ccccc5)nc4c3)c3c(N)nccn32)C1 [Linsitinib] (partner 1 µM)", "Experimental result": 1.08}
{"Compound": "CC1(C)CCC(c2ccc(Cl)cc2)=C(CN2CCN(c3ccc(C(=O)NS(=O)(=O)c4ccc(N[C@H](CCN5CCOCC5)CSc5ccccc5)c(S(=O)(=O)C(F)(F)F)c4)cc3)CC2)C1 [Navitoclax] + Cc1nc(NC(=O)N2CCC[C@H]2C(N)=O)sc1-c1ccnc(C(C)(C)C(F)(F)F)c1 [Alpelisib] (partner 2 µM)", "Experimental result": 0.906}

Values from the supplement of paper PMC10307832
